B1: 5KPH (parent)
chain: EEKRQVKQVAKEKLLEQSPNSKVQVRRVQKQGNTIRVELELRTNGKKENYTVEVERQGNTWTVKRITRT

variants of: B1; assay: folding stability dG (cDNA display proteolysis); higher = more stable; details: PBS, room temperature
Form field: folding stability dG (one value per entry).
property-name: folding stability dG (kcal/mol)

>>> test_result("R65M")
3.84
>>> test_result("R27C")
3.45
>>> test_result("V23C")
3.17
>>> test_result("V25D")
1.17
>>> test_result("E38P")
1.08
>>> test_result("S18K")
3.83
>>> test_result("R42A")
3.59
>>> test_result("E1T")
3.46
>>> test_result("Q17E")
3.31
>>> test_result("N44T")
3.27
>>> test_result("K22D")
3.8
>>> test_result("T51R")
3.33
>>> test_result("E55A")
3.45
>>> test_result("E2K")
2.91
>>> test_result("R4Q")
3.81
>>> test_result("L14E")
1.7
>>> test_result("L39I")
3.67
>>> test_result("V28K")
1.74
>>> test_result("T51K")
3
>>> test_result("I35T")
3.82

Value source: the MegaScale stability set (Tsuboyama et al. 2023)
